# System: Rattus norvegicus
# assay notes: Compound was tested in vivo for inhibition of Angiotensin I(AI) induced pressor response in normotensive rat after iv administration
# Type: functional
Consider the cut-off 0.2 µmol/kg. If the recorded ED50 is strictly smaller, the label is Criterion met; if not, the label is Criterion not met.

Prompt: I'd appreciate it if you could check whether `CC(C)C[C@H](S)C(=O)N[C@H]1CCc2ccccc2N(CC(=O)O)C1=O` has ED50 smaller than 0.2 µmol/kg.
Completion: Criterion not met

Prompt: Is it true that ED50 reported for `O=C(O)CN1C(=O)[C@@H](NC(=O)[C@@H](S)Cc2ccccc2)CCc2ccccc21` is less than 0.2 µmol/kg?
Completion: Criterion met

Prompt: Hi there! Is ED50 for `O=C(O)CN1CCCC[C@H](NC(=O)[C@@H](S)Cc2ccccc2)C1=O` below 0.2 µmol/kg, do you know?
Completion: Criterion not met

Prompt: Does this compound meet the criterion ED50 < 0.2 µmol/kg? `CCCC[C@H](S)C(=O)N[C@H]1CCc2ccccc2N(CC(=O)O)C1=O`
Completion: Criterion met

Prompt: Is ED50 strictly under 0.2 µmol/kg for the entry `C[C@H](NC(=O)[C@@H](S)Cc1ccccc1)C(=O)N(CC(=O)O)c1ccccc1` ?
Completion: Criterion met
